- EXPERIMENT SUMMARY: Pharmacokinetic oral gavage experiment in rats (serum spilanthol, one compartmental model)
- Format: in vivo, Wistar rats
- RUN CONDITIONS: both sexes, Wistar, rat, serum, po, 1.5 ml of 0.73 mg spilanthol/g dose solution, oral gavage (discussion, in brackets), read-out: elimination half-life (converted)
ASSAY READOUT: half-life (h)
Kindly answer with a numeric value in h, unit omitted.

**Query** Bench note: what half-life did C/C=C/C=C\CC/C=C/C(=O)NCC(C)C [spilanthol] show?
**Result** 1.05

---

- EXPERIMENT SUMMARY: Caco-2 cell permeability assay (Transwell, ab and ba direction)
- Type: in vitro ADME, human
- RUN CONDITIONS: human, Caco-2, DS1 (10 μg/ml purified spilanthol, 0.5 % ethanol in HBSS); mean ± SD, n = 2; read-out: apparent permeability coefficient (Papp), apical-to-basolateral
ASSAY READOUT: Papp A→B at 120 min, 10 μg/ml (×10⁻⁶ cm/s)
Kindly answer with a numeric value in ×10⁻⁶ cm/s, unit omitted.

**Query** Bench note: what Papp A→B at 120 min, 10 μg/ml did C/C=C/C=C\CC/C=C/C(=O)NCC(C)C show?
**Result** 84.2
